tested on: HCV replicon type 1b in Huh-Luc cells; test: HCV replicon assay, stable transfection (Huh-7 luc/neo, luciferase readout); assay type: cell-based, HCV type 1b; settings: stably transfected Huh-Luc cells, genotype 1b, three days incubation, average where tested more than once, read-out: HCV-REP-HUH7LUC_EC50
property: pEC50
Would you please state pEC50, meaning minus log10 of the concentration in mol/L, as a bare number?

Ask | What does the data say about its pEC50? Entry: COC(=O)N[C@H](C(=O)N1CCCC1c1cc(=O)c2ccc(-c3ccc4c(c3)C(F)(F)c3cc(-c5c[nH]c([C@@H]6CCCN6C(=O)[C@@H](NC(=O)OC)C(C)C)n5)ccc3-4)cc2[nH]1)C(C)C (single isomer, unassigned) [Compound 5b]
Reply | 9.64

Ask | What does the data say about its pEC50? Entry: COC(=O)N[C@H](C(=O)N1CCCC1c1cc(=O)c2ccc(-c3ccc4c(c3)C(F)(F)c3cc(-c5c[nH]c([C@@H]6CCCN6C(=O)[C@@H](NC(=O)OC)C(C)C)n5)ccc3-4)cc2[nH]1)C(C)C (single isomer, unassigned) [Compound 5a]
Reply | 10.85

----------
Assignment: determine reported CC50 for the given compounds.
assay: Counterscreen MT4-LTR-Luc; format: cell-based; conditions: human; MT4 T-cell line with long terminal repeat-Luc reporter

Ask | What does the data say about its CC50? Entry: COC(=O)N[C@H](C(=O)N1CCC[C@H]1c1ncc(-c2ccc3c(c2)C(F)(F)c2cc(-c4ccc5c(=O)cc([C@@H]6C[C@@H]7CCCC[C@@H]7N6C(=O)[C@@H](NC(=O)OC)C(C)C)[nH]c5c4)ccc2-3)[nH]1)C(C)C [Compound 6]
Reply | > 0.984 µM

Ask | What does the data say about its CC50? Entry: COC(=O)N[C@H](C(=O)N1CC2(C[C@H]1c1ncc(-c3ccc4c(c3)C(F)(F)c3cc(-c5ccc6c(=O)[nH]c([C@@H]7C[C@@H]8CCCC[C@@H]8N7C(=O)[C@@H](NC(=O)OC)C(C)C)nc6c5)ccc3-4)[nH]1)OCCO2)C(C)C [Compound 23]
Reply | > 0.984 µM

Ask | What does the data say about its CC50? Entry: COC(=O)N[C@H](C(=O)N1CCC[C@H]1C1=NS(=O)(=O)c2ccc(-c3ccc(-c4ccc(-c5c[nH]c([C@@H]6CCCN6C(=O)[C@@H](NC(=O)OC)C(C)C)n5)cc4)cc3)cc2N1)C(C)C [Compound 22]
Reply | > 0.984 µM
